experiment: Accumulation of contrast agent in Colon 26 tumor, dye extraction and fluorescence; type: in vivo; conditions: BALB/c Slc-nu/nu, mouse, tumor / blood, intravenous, 13 nmol in terms of ICG; 1 day after administration; read-out: Ratio of accumulation (tumor/blood)
metric: Kp at 24 h
Could you keep your reply to the number by itself?

-- ask Look up Kp at 24 h: CC1(C)C(/C=C/C=C/C=C/C=C2/N(CCCCS(=O)(=O)[O-])c3ccc4ccccc4c3C2(C)C)=[N+](CCCCS(=O)(=O)[O-])c2ccc3ccccc3c21.[Na+]
-- reply 0.5

Every entry's value here was drawn from patent US9675715B2.
